Just for reference, the supplement of paper PMC10567573 is where these values come from.

B1: POMT2 (parent)
chain: LRGGGQVLLGWTLHYFPFFLMGRV

- Variants of: B1
- Measurement Description: protein stability index of a GFP-peptide fusion (GPS, HEK-293T) (PSI 1-6); higher = more stable;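 also: lentivirally expressed fusions sorted by FACS into six bins by GFP to DsRed ratio, PSI derived from sequencing read proportions per bin multiplied by bin number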
- Recorded Conditions: c terminus: a fixed tail appended
Experimental Readout: protein stability index

LRGGGQVLCGWTLHYFPFFLMGRV = 1.75
LRGDGQVLLGWTLHYFPFFLMGRV = 2.16
LKGGGQVLLGWTLHYFPFFLMGRV = 2.04
LRGGGQVLLGWTLHYFNFFLMGRV = 2.79
LRGGGQVLLGWTLHTFPFFLMGRV = 1.39
LRGGGQVLLGWTLHYFPFFLMGRI = 2.03
LRGGGQVLLGWLLHYFPFFLMGRV = 1.93
LRGGGQWLLGWTLHYFPFFLMGRV = 2.36
LRGGGQVLLGWTSHYFPFFLMGRV = 3.02
LRGGGQVLPGWTLHYFPFFLMGRV = 2.59
LRGGGQVLLGWTLHYFPFFLMGRQ = 2.04
LRGGGQVLLGETLHYFPFFLMGRV = 1.74
LRGGGQMLLGWTLHYFPFFLMGRV = 2.07
LRGGGQVLLGWTLHYFPFFLKGRV = 2.16
FRGGGQVLLGWTLHYFPFFLMGRV = 3.06
LRGGGQVLLGWTLHYFPFFLMDRV = 3.12
LRGGGQALLGWTLHYFPFFLMGRV = 2.26
LRGGGQVLLGWTLHYFPFFLMARV = 3.58
LRGGGQVLLGWTLHYFPFFLMLRV = 3.83
LRGGGQVLLSWTLHYFPFFLMGRV = 3.85
LRGGGQVLLGWTLHYFPWFLMGRV = 1.2
LRGLGQVLLGWTLHYFPFFLMGRV = 1.27
